Target: KRAS G12S (Homo sapiens (Human), UniProt P01116+P62937, G12S)
Sequence (P01116-2 other isoform, or with tags, fused parts or gaps G12S): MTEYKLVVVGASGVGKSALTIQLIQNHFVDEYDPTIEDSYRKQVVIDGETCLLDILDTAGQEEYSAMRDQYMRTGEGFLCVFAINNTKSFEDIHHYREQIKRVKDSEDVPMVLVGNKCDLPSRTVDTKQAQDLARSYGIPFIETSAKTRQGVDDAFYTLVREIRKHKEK
Sequence (P62937 whole entry): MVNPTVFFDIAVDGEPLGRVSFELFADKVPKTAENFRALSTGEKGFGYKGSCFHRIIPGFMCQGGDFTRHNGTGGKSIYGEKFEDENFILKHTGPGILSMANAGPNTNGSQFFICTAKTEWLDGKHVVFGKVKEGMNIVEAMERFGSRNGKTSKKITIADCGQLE
Assay: Ras-Raf (BRAF RBD) disruption / FRET / MOA assay, KRAS G12S
Format: biochemical
Conditions: Ras-Raf disruption/FRET/MOA assay; class symbols; read-out: KRAS G12S FRET data IC50
Kindly state IC50 for each of the entries shown.

Reported IC50 for C=CC(=O)N1CC[C@H](C(=O)N(C)[C@H](C(=O)N[C@H]2Cc3csc(n3)-c3ccc4c(c3)c(c(-c3cccnc3[C@H](C)OC)n4CC)CC(C)(C)COC(=O)[C@@H]3CCCN(N3)C2=O)C(C)C)C1 (atropisomer, axis not shown) was 1 to 10 µM

Form: compound = CC#CC(=O)N1C[C@H](C)[C@H](C(=O)N(C)[C@H](C(=O)N[C@H]2Cc3cccc(c3)-c3ccc4c(c3)c(c(-c3cccnc3[C@H](C)OC)n4CC)CC(C)(C)COC(=O)[C@@H]3CCCN(N3)C2=O)C(C)C)C1 (atropisomer, axis not shown) ; IC50 = 1 to 10 µM

// IC50 lookup, compound = CCn1c(-c2cccnc2COC)c2c3cc(ccc31)-c1cc(C)cc(c1)C[C@H](NC(=O)[C@H](C(C)C)N(C)C(=O)[C@H]1CCN(C(=O)C#CCN(C)C)C1)C(=O)N1CCC[C@H](N1)C(=O)OCC(C)(C)C2 [Example A156] , result: > 10 µM

For reference, reported IC50 for C=CC(=O)N1CC[C@H](C(=O)N(C)[C@H](C(=O)N[C@H]2Cc3cc(O)cc(c3)-c3ccc4c(c3)c(c(-c3ccccc3CCOC)n4CC)CC(C)(C)COC(=O)[C@]3(C)CCCN(N3)C2=O)C(C)C)C1 stands at > 10 µM

For record C=CC(=O)N1CC[C@H](C(=O)N(C)[C@H](C(=O)N[C@H]2CC3=NN=C(S3)c3ccc4c(c3)c(c(-c3cccnc3[C@H](C)OC)n4CC)CC(C)(C)COC(=O)[C@@H]3CCCN(N3)C2=O)C(C)C)C1 (atropisomer, axis not shown) the listed IC50 is > 10 µM

IC50 in this record for CO[C@@H](C)c1ncccc1-c1c2c3cc(ccc3n1CC(F)(F)F)-c1cccc(c1)C[C@H](NC(=O)[C@H](C(C)C)N(C)C(=O)N1CCC3(CC1)CN(C(=O)/C=C/CN(C)C)C3)C(=O)N1CCC[C@H](N1)C(=O)OCC(C)(C)C2 (atropisomer, axis not shown) : 0.1 to 1 µM

IC50 for C=CC(=O)N1CC[C@H](C(=O)N(C)[C@H](C(=O)N[C@H]2Cc3cc(C)cc(c3)-c3ccc4c(c3)c(c(-c3cccnc3[C@H](C)OC)n4CC)CC(C)(C)COC(=O)[C@@H]3CCCN(N3)C2=O)C(C)C)C1 (atropisomer, axis not shown) is 1 to 10 µM

# IC50 (compound: CCn1c(-c2cccnc2[C@H](C)OC)c2c3cc(ccc31)-c1nc(cs1)C[C@H](NC(=O)[C@H](C1CCCC1)N(C)C(=O)[C@H]1CCN(C(=O)C#CC(C)(C)N3CCC3)C1)C(=O)N1CCC[C@H](N1)C(=O)OCC(C)(C)C2 (atropisomer, axis not shown) ) is 1 to 10 µM
